# test-system: T1, XCR1-SMALP
# T1 sequence (P46094 whole entry, species assumed, looked up): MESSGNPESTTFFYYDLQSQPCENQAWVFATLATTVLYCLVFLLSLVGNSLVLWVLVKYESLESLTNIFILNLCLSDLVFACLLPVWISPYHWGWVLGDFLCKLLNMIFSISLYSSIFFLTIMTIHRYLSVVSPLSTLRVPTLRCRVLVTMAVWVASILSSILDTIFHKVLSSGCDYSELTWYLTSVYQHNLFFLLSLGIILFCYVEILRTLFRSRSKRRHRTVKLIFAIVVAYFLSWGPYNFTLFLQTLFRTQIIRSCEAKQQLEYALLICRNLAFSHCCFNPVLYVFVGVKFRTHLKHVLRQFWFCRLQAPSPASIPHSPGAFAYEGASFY
# test-protocol: flow cytometry, yeast-displayed Fab, 50 nM XCR1 SMALP
property: relative binding fold change compared to LIBC523797-1(Fab) (fold)
Field format: number, assumed fold, no unit text.

A selection of reference data follows.
LIBC674229-1 (Fab on yeast) (Fab, V domains shown) VH: QVQLQESGPGLVKPSQTLSLTCTVSGGSIRRGGDYWSWIRQHPGKGLEWIGHIYQTGQTKYNPSFKGRVRISVNTYKNQFSLKLSSVTAADTAVYYCARGYDVSGYSYYYYGMDVWGQGTTVTVSS VL: DIVMTQSPLSLPVTPGEPASISCRSSQSLLHRSGYNYLDWYLQKPGQSPQLLIYQGSNRASGVPDRFSGSGSGTDFTLKISRVEAEDVGVYYCMQSLQTPRTFGQGTKVEIKR :: 0.8
LIBC673952-1 (Fab on yeast) (Fab, V domains shown) VH: QVQLQESGPGLVKPSQTLSLTCTVSGGSIRRGGDYWSWIRQHPGKGLEWIGHVYYTGQTTYNPSFRGRVTISVNTYKNQFSLKLSSVTAADTAVYYCARDYDILTGYSYYYYGLDVWGQGTTVTVSS VL: DIVMTQSPLSLPVTPGEPASISCRSSQSLLHRSGYNYLDWYLQKPGQSPQLLIYQGSNRASGVPDRFSGSGSGTDFTLKISRVEAEDVGVYYCRQARALPRTFGQGTKVEIKR :: 0.59

Please report the recorded relative binding fold change compared to LIBC523797-1(Fab) for LIBC674090-1 (Fab on yeast) (Fab, V domains shown) VH: QVQLQESGPGLVKPSQTLSLTCTVSGGSIRRGGDYWSWIRQHPGKGLEWIGHIYYAGSTAYNPNFRGRVRISVNTYKNQFSLKLSSVTAADTAVYYCARGYDTSGYSYYYYGLDVWGQGTTVTVSS VL: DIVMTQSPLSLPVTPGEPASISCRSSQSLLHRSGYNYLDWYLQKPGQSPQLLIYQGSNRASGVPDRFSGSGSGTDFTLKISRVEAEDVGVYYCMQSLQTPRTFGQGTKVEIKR .
0.74

Field entry: LIBC674200-1 (Fab on yeast) (Fab, V domains shown) VH: QVQLQESGPGLVKPSQTLSLTCTVSGGSIRRGGDYWSWIRQHPGKGLEWIGHVYYTGQTAYNPNFRNRVRISVNTYKNQFSLKLSSVTAADTAVYYCARGYDVSGYSYYYYGMDVWGQGTTVTVSS VL: DIVMTQSPLSLPVTPGEPASISCRSSQSLLHRSGYNYLDWYLQKPGQSPQLLIYLGSNRASGVPGRFSGSGSGTDFTLKISRVEAEDVGVYYCMQSLQTPRTFGQGTKVEIKR
0.79
